Target: adenosine A2 receptors (Rattus norvegicus)
Sequence (P30543 whole entry): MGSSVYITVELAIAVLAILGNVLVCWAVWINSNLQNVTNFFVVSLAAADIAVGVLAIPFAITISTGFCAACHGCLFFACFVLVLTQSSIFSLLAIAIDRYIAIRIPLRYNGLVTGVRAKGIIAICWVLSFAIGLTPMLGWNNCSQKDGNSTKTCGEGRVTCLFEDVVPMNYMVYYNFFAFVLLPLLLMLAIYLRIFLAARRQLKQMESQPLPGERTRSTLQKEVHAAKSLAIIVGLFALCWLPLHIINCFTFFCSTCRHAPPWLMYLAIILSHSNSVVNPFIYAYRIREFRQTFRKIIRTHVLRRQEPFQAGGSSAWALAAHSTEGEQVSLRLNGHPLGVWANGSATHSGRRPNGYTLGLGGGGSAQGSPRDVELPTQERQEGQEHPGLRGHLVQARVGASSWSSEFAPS
Readout label: pKi
Note on pKi: it is the negative log10 of concentration, concentration in mol/L.

[in] Item under review: CCCn1c(=O)c2[nH]c(C3(N)CCCC3)nc2n(CCC)c1=O . Reported pKi?
[out] 4.26

* * *

A collection of compounds and their measured pKi
Molecular target: adenosine A1 receptors (Rattus norvegicus, UniProt P25099)
Construct: preparations of sinaptosomial membranes from rat brain; from tissue; host or cells: rat brain synaptosomal membranes
Sequence (P25099 whole entry): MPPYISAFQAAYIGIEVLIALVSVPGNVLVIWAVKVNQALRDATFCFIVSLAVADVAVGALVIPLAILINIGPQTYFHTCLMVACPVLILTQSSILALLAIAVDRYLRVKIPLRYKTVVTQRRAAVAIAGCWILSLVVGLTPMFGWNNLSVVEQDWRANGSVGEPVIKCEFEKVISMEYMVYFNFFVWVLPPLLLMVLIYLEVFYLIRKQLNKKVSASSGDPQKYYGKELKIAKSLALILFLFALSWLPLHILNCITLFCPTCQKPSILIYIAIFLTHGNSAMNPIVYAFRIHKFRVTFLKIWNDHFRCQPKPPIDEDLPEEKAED
Test: Binding to the adenosine A1 receptors, (3H)-DPCPX displacement, synaptosomal membranes from rat brain
Details: rat brain synaptosomal membranes; 0.3 nM (3H)-DPCPX; 1 h at 25° C., pH 7.4; Ki from IC50 via Cheng-Prusoff
Worth noting: pKi values are minus log10 of concentrations stated in mol/L.

Solved entries:
# Compound, Tested target, Observed measurement
records = [
    ("CCCn1c(=O)c2[nH]c(C3(NC(=O)OCC)CCCC3)nc2n(CCC)c1=O [COMPOUND EX. 10]", "adenosine A1 receptors (Rattus norvegicus, UniProt P25099)", 6.97),
    ("CCCn1c(=O)c2[nH]c(C3(N)CCCC3)nc2n(CCC)c1=O [COMPOUND EX. 1]", "adenosine A1 receptors (Rattus norvegicus, UniProt P25099)", 7.59),
]

Continue with the next compound.
[in] # query: pKi of entry CCCn1c(=O)c2[nH]c(C3(NC(=O)c4ccccc4)CCCC3)nc2n(CCC)c1=O [COMPOUND EX. 6]
[out] 6.94
